- Tested on: BICR22 (Oral Cavity Carcinoma);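 further: after 72 h of two-drug dosing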
- method-notes: Bliss excess, mean over the matrix (fraction); higher = more synergy
measurement-label: Bliss excess
Provide a numeric answer; units are not to be included.

GET Bliss excess | system: BICR22 (Oral Cavity Carcinoma) | item: CC1(C)CCC(CN2CCN(c3ccc(C(=O)NS(=O)(=O)c4ccc(NCC5CCOCC5)c([N+](=O)[O-])c4)c(Oc4cnc5[nH]ccc5c4)c3)CC2)=C(c2ccc(Cl)cc2)C1 [Venetoclax] + C=CCn1c(=O)c2cnc(Nc3ccc(N4CCN(C)CC4)cc3)nc2n1-c1cccc(C(C)(C)O)n1 [AZD1775] (first compound max 1 µM, partner max 1 µM) 0.0453

GET Bliss excess | system: BICR22 (Oral Cavity Carcinoma) | item: CC1(C)CCC(CN2CCN(c3ccc(C(=O)NS(=O)(=O)c4ccc(NCC5CCOCC5)c([N+](=O)[O-])c4)c(Oc4cnc5[nH]ccc5c4)c3)CC2)=C(c2ccc(Cl)cc2)C1 [Venetoclax] + CN(C)CCCOc1ccc(-c2ccc3ncc4c(c3c2)n(C2CCOCC2)c(=O)n4C)cn1 [AZD0156] (first compound max 1 µM, 7x7, partner max 1 µM) -0.0381

GET Bliss excess | system: BICR22 (Oral Cavity Carcinoma) | item: Cn1cnc2c(F)c(Nc3ccc(Br)cc3Cl)c(C(=O)NOCCO)cc21 [Selumetinib] + CC(C)n1c(=O)n(C)c2cnc3cc(F)c(-c4ccc(OCCCN5CCCCC5)nc4)cc3c21 [AZD1390] (first compound max 10 µM, 7x7, partner max 0.3 µM) -0.027

GET Bliss excess | system: BICR22 (Oral Cavity Carcinoma) | item: Cc1cc2ncnn2cc1Nc1ncc2c(n1)n(C1CCOCC1)c(=O)n2C [AZD7648] + CCN(CCO)CCCOc1ccc2c(Nc3cc(CC(=O)Nc4cccc(F)c4)[nH]n3)ncnc2c1 [AZD2811] (first compound max 10 µM, 7x7, partner max 1 µM) 0.0239
